Every entry's value here was drawn from ChEMBL document CHEMBL4261516.

system: NCI-H460; experiment: Cytotoxicity against human NCI-H460 cells after 48 hrs by MTT assay; format: functional, cell-based; settings: NCI-H460, 48 h
pIC50: −log10 of the molar value.
result type: pIC50

Consider the worked cases shown below.
INSERT INTO assay_data (compound, result_type, measured_value) VALUES
  ('CCOP(=O)(OCC)C(Nc1ccccc1)c1cc2cc(OC)ccc2[nH]c1=O (stereo not given)', 'pIC50', '< 4.00'),
  ('CCOP(=O)(OCC)C(Nc1ccc([N+](=O)[O-])cc1)c1cc2cc(OC)ccc2[nH]c1=O (stereo not given)', 'pIC50', 4.35),
  ('CCOP(=O)(OCC)C(Nc1cccc(C)c1)c1cc2cc3c(cc2[nH]c1=O)OCO3 (stereo not given)', 'pIC50', '< 4.00'),
  ('CCOP(=O)(OCC)C(Nc1cccc(C)c1)c1cc2cc(C)ccc2[nH]c1=O (stereo not given)', 'pIC50', '< 4.00');

Then there is this compound:
Task: Reported pIC50 for CCOP(=O)(OCC)C(Nc1ccc([N+](=O)[O-])cc1)c1cc2cc(C)ccc2[nH]c1=O (stereo not given) : what is it?
Result: < 4.00
